- experimental.target: PDE4B1 (Homo sapiens, UniProt Q07343)
- Construct: made in house; host or cells: SF21 insect cells (baculovirus; virus made in SF9 cells, pCR-Bac vector)
- Sequence (Q07343 whole entry): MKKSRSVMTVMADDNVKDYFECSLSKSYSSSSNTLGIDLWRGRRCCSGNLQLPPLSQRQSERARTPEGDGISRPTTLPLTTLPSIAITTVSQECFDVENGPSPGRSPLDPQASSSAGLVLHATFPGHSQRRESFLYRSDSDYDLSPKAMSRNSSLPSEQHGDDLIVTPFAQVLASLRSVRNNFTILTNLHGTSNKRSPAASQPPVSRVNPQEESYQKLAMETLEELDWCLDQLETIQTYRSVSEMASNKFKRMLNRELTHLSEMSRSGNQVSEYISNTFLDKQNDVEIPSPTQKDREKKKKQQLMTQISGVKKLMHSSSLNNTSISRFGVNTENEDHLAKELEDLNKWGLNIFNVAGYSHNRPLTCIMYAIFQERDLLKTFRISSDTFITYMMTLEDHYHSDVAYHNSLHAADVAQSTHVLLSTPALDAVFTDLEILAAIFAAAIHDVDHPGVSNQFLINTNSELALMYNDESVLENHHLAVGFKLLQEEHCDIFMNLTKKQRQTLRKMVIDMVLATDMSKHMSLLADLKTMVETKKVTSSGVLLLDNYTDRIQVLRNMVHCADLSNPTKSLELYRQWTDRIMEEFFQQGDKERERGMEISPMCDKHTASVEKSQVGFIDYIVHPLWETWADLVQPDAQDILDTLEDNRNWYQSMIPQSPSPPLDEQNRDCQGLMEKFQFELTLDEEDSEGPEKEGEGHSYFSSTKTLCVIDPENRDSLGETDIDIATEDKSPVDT
- assay.details: Inhibition of PDE4 activity (PDE4B1, SPA assay)
- Type: biochemical
- cond: recombinant PDE4B1, 0.5 μM cAMP; read-out: PDE4B1 Inhibitory values measured as -logIC50 (converted)
experimental.readout: IC50

mol.smiles | experimental.target | IC50
COc1ccc(C2=NN(C3CCN(C(=O)[C@H](Cc4cccc(C)c4)NC(=O)c4c(C)[nH]c5c(-c6c(OCC7CC7)ccc7c6OCO7)ncnc45)CC3)C(=O)[C@@H]3CCCC[C@H]23)cc1OC | PDE4B1 (Homo sapiens, UniProt Q07343) | 1 to 10 nM
COc1ccc(C2=NN(C3CCN(C(=O)[C@@H](Cc4cc(F)cc(F)c4)NC(=O)c4c[nH]c5c(-c6c(OCC7CC7)ccc7c6OCO7)ncnc45)CC3)C(=O)[C@@H]3CCCC[C@H]23)cc1OC | PDE4B1 (Homo sapiens, UniProt Q07343) | < 1 nM

// next entry
**Query** Using the record for "COc1ccc(C2=NN(C3CCN(C(=O)[C@H](NC(=O)c4c[nH]c5c(-c6c(OCC7CC7)ccc7c6OCO7)ncnc45)C4CCCCC4)CC3)C(=O)[C@@H]3CCCC[C@H]23)cc1OC" , state its measured IC50.
**Result** < 1 nM

Measured values drawn from patent US20160108049A1 for this set.
